Let's look at some compounds and their measured EC50.
- System: endogenous target monocytes in human PBMC
- method: PBMC ex vivo monocyte depletion flow cytometry assay (Example 200)
- Type: cell-based
- recordedConditions: with anti-cotinine antibody (SEQ ID NO: 11/12), 18-24 hours, EC50 in molar, read-out: Ex Vivo Depletion Assay pEC50 (converted)
The reply should be a number in nM, with the unit left off.

smilesInput | testSystem | unitsSymbol | valueMeasured
CC(C)N(C)[C@@H]1CC[C@H](N2CC[C@H](Nc3ncnc4ccc(C(F)(F)F)cc34)C2=O)[C@H](NC(=O)[C@H]2CC[C@H](c3ccc(C(=O)NCCOCCOCCNC(=O)[C@H]4CC(=O)N(C)[C@@H]4c4cccnc4)cn3)CC2)C1 | endogenous target monocytes in human PBMC | nM | 5.01
CC(C)N(C)[C@@H]1CC[C@H](N2CC[C@H](Nc3ncnc4ccc(C(F)(F)F)cc34)C2=O)[C@H](NC(=O)CCOCCNC(=O)COCCNC(=O)COCCNC(=O)[C@H]2CC(=O)N(C)[C@@H]2c2cccnc2)C1 | endogenous target monocytes in human PBMC | nM | 0.316
CC(C)N(C)[C@@H]1CC[C@H](N2CC[C@H](Nc3ncnc4ccc(C(F)(F)F)cc34)C2=O)[C@H](NC(=O)CCOCCC(=O)N[C@H]2C[C@@H](C(=O)NCCOCCNC(=O)[C@H]3CC(=O)N(C)[C@@H]3c3cccnc3)C2)C1 | endogenous target monocytes in human PBMC | nM | 0.316

### Prompt Fill in the blank: the reported EC50 of CC(C)N(C)[C@@H]1CC[C@H](N2CC[C@H](Nc3ncnc4ccc(C(F)(F)F)cc34)C2=O)[C@H](NC(=O)[C@H]2CC[C@@H](NC(=O)CCCO[C@H]3CC[C@H](OCCNC(=O)[C@H]4CC(=O)N(C)[C@@H]4c4cccnc4)CC3)CC2)C1 is ____.
### Response 0.398

====

- Test system: endogenous target monocytes in human PBMC
- method: PBMC ex vivo monocyte depletion flow cytometry assay (Example 200)
- Format: cell-based
- recordedConditions: with anti-cotinine antibody (SEQ ID NO: 11/12), 18-24 hours, EC50 in molar, read-out: Ex Vivo Depletion Assay pEC50 (converted)
- Protocol: A human PBMC (peripheral blood mononuclear cells) monocyte depletion flow cytometry assay was developed to screen compounds in a 384-well plate format. This assay incorporated endogenous natural killer cells to deplete endogenous target monocytes. To screen compounds in the human PBMC monocyte depletion flow cytometry assay, 11-point dose-response curves were made from 1 mM stocks in neat DMSO by serially diluting an ARM compound of Formula (I) four-fold into a 384-well plate row-wise. […]
endpointLabel: EC50 (nM)
Reply with just the number (in nM).

molecule | EC50, nM
CC(C)N(C)[C@@H]1CC[C@H](N2CC[C@H](Nc3ncnc4ccc(C(F)(F)F)cc34)C2=O)[C@H](NC(=O)CCOCCC(=O)N[C@H]2C[C@H](C(=O)NCCOCCNC(=O)[C@H]3CC(=O)N(C)[C@@H]3c3cccnc3)C2)C1 | 0.251

### Prompt I have this molecule here, CC(C)N(C)[C@@H]1CC[C@H](N2CC[C@H](Nc3ncnc4ccc(C(F)(F)F)cc34)C2=O)[C@H](NC(=O)c2cc(NCCOCCOCCOCCOCCNC(=O)[C@H]3CC(=O)N(C)[C@@H]3c3cccnc3)ncn2)C1 , and I need its recorded EC50.
### Response 2

====

- testSystem: human alpha1 nicotinic acetylcholine (nACh) receptor (Homo sapiens, UniProt P02708)
- Sequence (P02708 21-457): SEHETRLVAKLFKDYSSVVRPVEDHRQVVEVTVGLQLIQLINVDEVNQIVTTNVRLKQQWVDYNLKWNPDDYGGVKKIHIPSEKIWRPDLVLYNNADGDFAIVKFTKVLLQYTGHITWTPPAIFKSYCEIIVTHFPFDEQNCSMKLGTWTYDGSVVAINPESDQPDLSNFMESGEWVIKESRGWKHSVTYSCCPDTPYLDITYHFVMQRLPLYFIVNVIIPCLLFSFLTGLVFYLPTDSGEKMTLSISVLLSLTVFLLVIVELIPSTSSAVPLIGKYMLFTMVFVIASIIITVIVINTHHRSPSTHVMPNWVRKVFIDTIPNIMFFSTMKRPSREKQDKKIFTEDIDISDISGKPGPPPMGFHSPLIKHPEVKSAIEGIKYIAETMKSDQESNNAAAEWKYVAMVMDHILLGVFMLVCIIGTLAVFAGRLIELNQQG
- Sequence (P11230 24-501 partner): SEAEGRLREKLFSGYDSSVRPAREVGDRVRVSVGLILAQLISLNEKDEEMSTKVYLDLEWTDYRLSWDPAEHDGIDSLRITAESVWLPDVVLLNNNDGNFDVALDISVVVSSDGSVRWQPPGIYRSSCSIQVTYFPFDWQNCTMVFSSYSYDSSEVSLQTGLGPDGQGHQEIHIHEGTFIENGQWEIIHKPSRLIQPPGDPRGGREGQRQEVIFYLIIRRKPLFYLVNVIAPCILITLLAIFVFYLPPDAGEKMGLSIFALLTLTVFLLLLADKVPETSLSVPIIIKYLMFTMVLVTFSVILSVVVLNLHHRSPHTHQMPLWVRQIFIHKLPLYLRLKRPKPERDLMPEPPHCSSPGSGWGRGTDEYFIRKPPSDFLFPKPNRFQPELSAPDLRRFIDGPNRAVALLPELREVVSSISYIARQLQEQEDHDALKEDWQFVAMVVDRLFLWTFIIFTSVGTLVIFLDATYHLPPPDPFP
- Sequence (Q07001 22-517 partner): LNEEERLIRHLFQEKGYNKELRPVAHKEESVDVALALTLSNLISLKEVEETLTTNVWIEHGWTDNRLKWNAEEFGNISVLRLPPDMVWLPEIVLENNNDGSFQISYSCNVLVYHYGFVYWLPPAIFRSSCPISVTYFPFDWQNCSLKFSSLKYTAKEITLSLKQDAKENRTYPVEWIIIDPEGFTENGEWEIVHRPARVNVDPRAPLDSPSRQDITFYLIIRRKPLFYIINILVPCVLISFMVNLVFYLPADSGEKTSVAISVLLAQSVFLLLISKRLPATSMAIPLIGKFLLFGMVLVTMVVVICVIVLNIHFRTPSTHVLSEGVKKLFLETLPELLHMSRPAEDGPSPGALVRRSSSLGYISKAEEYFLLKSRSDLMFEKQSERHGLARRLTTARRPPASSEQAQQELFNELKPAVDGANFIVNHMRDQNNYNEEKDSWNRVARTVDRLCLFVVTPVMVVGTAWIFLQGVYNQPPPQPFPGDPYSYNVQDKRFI
- method: Nicotinic acetylcholine receptor antagonism assay, IONFlux automated patch clamp (Example 203)
- recordedConditions: antagonism of ACh-stimulated human alpha1 nAChR current, patch clamp
- Description: Cells expressing human alpha1 nicotinic acetylcholine (nACh) receptor (nAChR) were washed and dissociated using Trypsin containing buffer. Cells were then washed and seeded at a density of 3-5 million cells/mL and allowed to grow for 3 days. […] The receptor was then stimulated via addition of acetylcholine (ACh) and activation of the receptor was monitored via the IONFlux automated patch clamp system. […]
endpointLabel: pIC50
FYI, pIC50 means -log10 of a concentration in mol per litre.

compound | valueMeasured
CCN1C(=O)C[C@H](C(=O)NCCOCCOCCOCCC(=O)N[C@H]2CC[C@@H](C(=O)N[C@@H]3C[C@H](N(C)C(C)C)CC[C@@H]3N3CC[C@H](Nc4ncnc5ccc(C(F)(F)F)cc45)C3=O)CC2)[C@H]1c1cccnc1 [Example 34] | 4.54

# ---- query compound ----
### Prompt I am curious: what pIC50 value has been reported for CC(C)N(C)[C@@H]1CC[C@H](N2CC[C@H](Nc3ncnc4ccc(C(F)(F)F)cc34)C2=O)[C@H](NC(=O)[C@H]2CC[C@@H](NC(=O)CCCO[C@H]3CC[C@H](NC(=O)CCNC(=O)[C@@H]4CC(=O)N(C)[C@H]4c4cccnc4)CC3)CC2)C1 [Example 52] ?
### Response 4.48

====

- Tested on: endogenous target monocytes in human PBMC
- method: PBMC ex vivo monocyte depletion flow cytometry assay (Example 200)
- Type: cell-based
- recordedConditions: with anti-cotinine antibody (SEQ ID NO: 11/12), 18-24 hours, EC50 in molar, read-out: Ex Vivo Depletion Assay pEC50 (converted)
Checkbox rule: EC50 lower than 0.6 nM = criterion met; EC50 not lower than 0.6 nM = criterion not met.

Solved entries:
molecule | assignedClass
CC(C)N(C)[C@@H]1CC[C@H](N2CC[C@H](Nc3ncnc4ccc(C(F)(F)F)cc34)C2=O)[C@H](NC(=O)[C@H]2CC[C@@H](NC(=O)CCO[C@H]3CC[C@H](OCCNC(=O)[C@H]4CC(=O)N(C)[C@@H]4c4cccnc4)CC3)CC2)C1 [Example 112] | criterion not met
CC(C)N(C)[C@@H]1CC[C@H](N2CC[C@H](Nc3ncnc4ccc(C(F)(F)F)cc34)C2=O)[C@H](NC(=O)[C@H]2CC[C@H](C3CCN(CCOCCOCCNC(=O)[C@H]4CC(=O)N(C)[C@@H]4c4cccnc4)CC3)CC2)C1 [Example 189] | criterion not met
CC(C)N(C)[C@@H]1CC[C@H](N2CC[C@H](Nc3ncnc4ccc(C(F)(F)F)cc34)C2=O)[C@H](NC(=O)C2CCN(C3CCN(C(=O)CCCCCCCCCNC(=O)[C@@H]4CC(=O)N(C)[C@H]4c4cccnc4)CC3)CC2)C1 [Example 157] | criterion not met
CC(C)N(C)[C@@H]1CC[C@H](N2CC[C@H](Nc3ncnc4ccc(C(F)(F)F)cc34)C2=O)[C@H](NC(=O)[C@H]2CC[C@@H](NC(=O)CCOCCOCCOCCNC(=O)[C@H]3CC(=O)N(C)[C@@H]3c3cccnc3)CC2)C1 [Example 28] | criterion not met
CC(C)N(C)[C@@H]1CC[C@H](N2CC[C@H](Nc3ncnc4ccc(C(F)(F)F)cc34)C2=O)[C@H](NC(=O)CCCCCCCCNCCOCCOCCOCCOCCNC(=O)[C@H]2CC(=O)N(C)[C@@H]2c2cccnc2)C1 [Example 195] | criterion met
CC(C)N(C)[C@@H]1CC[C@H](N2CC[C@H](Nc3ncnc4ccc(C(F)(F)F)cc34)C2=O)[C@H](NC(=O)C23CCC(NC(=O)CCOCCOCCOCCNC(=O)[C@H]4CC(=O)N(C)[C@@H]4c4cccnc4)(CC2)CC3)C1 [Example 25] | criterion not met

### Prompt Record CC(C)N(C)[C@@H]1CC[C@H](N2CC[C@H](Nc3ncnc4ccc(C(F)(F)F)cc34)C2=O)[C@H](NC(=O)CCNC2CCC3(CC2)CCN(CCCNC(=O)[C@H]2CC(=O)N(C)[C@@H]2c2cccnc2)CC3)C1 [Example 138] : is its EC50 strictly below 0.6 nM?
### Response criterion met

### Prompt # TODO verify EC50 < 0.6 nM strictly for this molecule: CC(C)N(C)[C@@H]1CC[C@H](N2CC[C@H](Nc3ncnc4ccc(C(F)(F)F)cc34)C2=O)[C@H](NC(=O)[C@H]2C[C@@H](NC(=O)CCOCCOCCNC(=O)CCNC(=O)[C@H]3CC(=O)N(C)[C@@H]3c3cccnc3)C2)C1 [Example 49]
### Response criterion met

### Prompt Is EC50 strictly under 0.6 nM for the entry CC(C)N(C)[C@@H]1CC[C@H](N2CC[C@H](Nc3ncnc4ccc(C(F)(F)F)cc34)C2=O)[C@H](NC(=O)c2ccc(C3CCN(CCOCCOCCNC(=O)[C@H]4CC(=O)N(C)[C@@H]4c4cccnc4)CC3)cn2)C1 [Example 94] ?
### Response criterion not met

### Prompt Given the entry CC(C)N(C)[C@@H]1CC[C@H](N2CC[C@H](Nc3ncnc4ccc(C(F)(F)F)cc34)C2=O)[C@H](NC(=O)[C@H]2CC[C@@H](NC(=O)C3CCC4(CC3)CCN(CCNC(=O)[C@H]3CC(=O)N(C)[C@@H]3c3cccnc3)CC4)CC2)C1 [Example 170] , would its reported EC50 be below 0.6 nM?
### Response criterion met

### Prompt State whether 0.6 nM exceeds EC50 recorded for CC(C)N(C)[C@@H]1CC[C@H](N2CC[C@H](Nc3ncnc4ccc(C(F)(F)F)cc34)C2=O)[C@H](NC(=O)[C@H]2CC[C@H](N3CCC(C(=O)NCCOCCOCCNC(=O)[C@H]4CC(=O)N(C)[C@@H]4c4cccnc4)CC3)CC2)C1 [Example 135] .
### Response criterion not met

### Prompt Does CC(C)N(C)[C@@H]1CC[C@H](N2CC[C@H](Nc3ncnc4ccc(C(F)(F)F)cc34)C2=O)[C@H](NC(=O)[C@H]2CC[C@@H](NC(=O)CCCO[C@H]3CC[C@@H](OCCNC(=O)[C@H]4CC(=O)N(C)[C@@H]4c4cccnc4)CC3)CC2)C1 [Example 3] have EC50 strictly under 0.6 nM?
### Response criterion met

### Prompt Regarding CC(C)N(C)[C@@H]1CC[C@H](N2CC[C@H](Nc3ncnc4ccc(C(F)(F)F)cc34)C2=O)[C@H](NC(=O)c2ccc(N3CCC(C(=O)NCCOCCOCCNC(=O)[C@H]4CC(=O)N(C)[C@@H]4c4cccnc4)CC3)cc2)C1 [Example 130] , kindly confirm whether its EC50 is beneath 0.6 nM.
### Response criterion not met

### Prompt Lab log: compare recorded EC50 with 0.6 nM; is it strictly lower for CC(C)N(C)[C@@H]1CC[C@H](N2CC[C@H](Nc3ncnc4ccc(C(F)(F)F)cc34)C2=O)[C@H](NC(=O)[C@H]2CC[C@@H](NC(=O)CCOCCNC(=O)CCOCCCNC(=O)[C@H]3CC(=O)N(C)[C@@H]3c3cccnc3)CC2)C1 [Example 101] ?
### Response criterion not met

### Prompt For CC(C)N(C)[C@@H]1CC[C@H](N2CC[C@H](Nc3ncnc4ccc(C(F)(F)F)cc34)C2=O)[C@H](NC(=O)[C@H]2CC[C@@H](C(=O)NCCCN3CCN(CCCNC(=O)[C@H]4CC(=O)N(C)[C@@H]4c4cccnc4)CC3)CC2)C1 [Example 150] , is the recorded EC50 below the cut-off of 0.6 nM?
### Response criterion not met

### Prompt In the record for CC(C)N(C)[C@@H]1CC[C@H](N2CC[C@H](Nc3ncnc4ccc(C(F)(F)F)cc34)C2=O)[C@H](NC(=O)COCCNC(=O)CNC(=O)CCOCCOCCNC(=O)[C@H]2CC(=O)N(C)[C@@H]2c2cccnc2)C1 [Example 80] , is EC50 less than 0.6 nM?
### Response criterion not met
